Target Or Test System: T1, human GLP-1 receptor (human, UniProt P43220 24-463)
T1 construct: whole, on cells; Used as purified plasma membranes of the stably transfected BHK cell line, not as intact cells; also called hGLP-1
Method Summary: SPA displacement assay; IC50 at 2.0% HSA over IC50 at 0.001% HSA
Numbered stars: 1 amine (or outer) side, 2 acyl side, 3 side chain; on linkers, the order of the positions; unused ones are H or OH. Square brackets hold non-standard residues; d marks the D form. Side chains are listed from the residue outwards. Ends that are not written are not given here. * marks the point of attachment. Dodecanoyl(12-OPh(4-COOH)) = O=C(O)c1ccc(OCCCCCCCCCCCC(=O)*)cc1; γGlu = O=C(O)[C@H](CCC(=O)[*:2])N[*:1]; C14 diacid = O=C(O)CCCCCCCCCCCCC(=O)*; AEEA = NCCOCCOCC(=O)O; Aib = CC(C)(N)C(=O)O
Recorded Ratio [(IC50/nM) high HSA]/[(IC50/nM) low HSA] for the following binders

Examples with their reported Ratio [(IC50/nM) high HSA]/[(IC50/nM) low HSA] follow.
Binder	Measurement
HAEGTFTSDVSSYLEEQK([γGlu-AEEA-AEEA-C14 diacid])VRK([γGlu-AEEA-AEEA-C14 diacid])FIAWLVG (also called 30)	134
H[Aib]EGTFTSDVSSYLEK([AEEA-AEEA-γGlu-C14 diacid])QAVRK([AEEA-AEEA-γGlu-C14 diacid])FIAWLVR	57
H[Aib]EGTFTSDVSSYLEGQAVRK([AEEA-AEEA-γGlu-C14 diacid])FIAHLVQGRK([AEEA-AEEA-γGlu-C14 diacid]) (also called 15)	155

Task: Output Ratio [(IC50/nM) high HSA]/[(IC50/nM) low HSA] of HAEGTFTSDVSSYLEEQAARK([AEEA-AEEA-γGlu-Dodecanoyl(12-OPh(4-COOH))])FIEWLVRGK([AEEA-AEEA-γGlu-Dodecanoyl(12-OPh(4-COOH))])GEG (also called 32)
Output: 2050
